- target desc: PARP-2 (Homo sapiens)
- Construct: purchased BPS Bioscience 80552
- Sequence (Q9UGN5 whole entry): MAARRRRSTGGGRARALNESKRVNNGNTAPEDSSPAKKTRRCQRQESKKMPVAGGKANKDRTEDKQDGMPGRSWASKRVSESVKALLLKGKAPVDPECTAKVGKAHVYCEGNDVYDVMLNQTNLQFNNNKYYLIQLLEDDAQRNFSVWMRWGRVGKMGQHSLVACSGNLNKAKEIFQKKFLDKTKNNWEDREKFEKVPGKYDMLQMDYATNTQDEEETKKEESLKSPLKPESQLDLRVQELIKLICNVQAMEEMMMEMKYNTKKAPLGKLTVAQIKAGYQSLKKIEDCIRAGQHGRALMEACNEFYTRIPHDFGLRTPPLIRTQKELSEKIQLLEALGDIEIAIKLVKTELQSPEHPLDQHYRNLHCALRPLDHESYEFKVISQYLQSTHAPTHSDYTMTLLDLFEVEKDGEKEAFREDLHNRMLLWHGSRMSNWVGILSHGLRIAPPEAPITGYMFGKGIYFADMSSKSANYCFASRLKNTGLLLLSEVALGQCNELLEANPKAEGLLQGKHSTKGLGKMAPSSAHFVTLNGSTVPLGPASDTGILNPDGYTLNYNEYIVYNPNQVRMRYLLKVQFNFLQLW
- measurement notes: PARP-2 inhibition assay (PARP-2 Chemiluminescent Assay Kit, BPS Bioscience)
- Assay type: biochemical
- reported conditions: 10 nM compound, supplement sheet; read-out: 10 nM inhibition% PAPR-2
readout: inhibition at 0.01 µM (%)

NC(=O)c1cccc2[nH]c(C3CCN(CCC(=O)Nc4ccccc4)C3)nc12 (stereo not shown) [Compound 5cb] ... 41.2
NC(=O)c1cccc2[nH]c(C3CCN(CCCNC(=O)c4ccccc4)C3)nc12 (stereo not shown) [Compound 5cn] ... 39.1
NC(=O)c1cccc2[nH]c(C3CCN(CC(=O)c4ccccc4)C3)nc12 (stereo not shown) [Compound 5cd] ... 7.18
COc1ccc(C(=O)CCN2CCC(c3nc4c(C(N)=O)cccc4[nH]3)C2)cc1 (stereo not shown) [Compound 5ci] ... 62.5
NCCCN1CCC(c2nc3c(C(N)=O)cccc3[nH]2)C1 (stereo not shown) [Compound 5cl] ... 46.4

[P] NC(=O)c1cccc2[nH]c(C3CCN(CCC(=O)c4ccccc4)C3)nc12 (stereo not shown) [Compound 5cp]
[Q] NC(=O)c1cccc2[nH]c(C3CCN(CCN4C(=O)c5ccccc5C4=O)C3)nc12 (stereo not shown) [Compound 5ck]
**Query** In the pair P and Q , the larger recorded inhibition at 0.01 µM belongs to which? Write down the label of the entry you select.
**Result** P
(P: 76.8%, Q: 37.1%)

====

Listed here: items and their measured inhibition at 0.0152 µM.
- System: MDA-MB-436 (a BRCA-1-mutated breast cancer cell line)
- measurement notes: Cell proliferation assay, three-day, CellTiter-Glo, MDA-MB-436
- Assay type: cell-based
- reported conditions: Homo sapiens, MDA-MB-436, MDA-MB-436, Conc. 0.0152 uM, replicate 2; read-out: Inh % 2
Could you give me the number in %? Just the number is fine.

Past entries and their recorded results:
NCCN1CCC(c2nc3c(C(N)=O)cccc3[nH]2)C1 (centres unmarked) [Compound 5cm] ... -4.9
NC(=O)c1cccc2[nH]c(C3CCN(CCCN4C(=O)c5ccccc5C4=O)C3)nc12 (centres unmarked) [Compound 5ce] ... -5
NCCCN1CCC(c2nc3c(C(N)=O)cccc3[nH]2)C1 (centres unmarked) [Compound 5cl] ... -4.9
NC(=O)c1cccc2[nH]c(C3CCN(CC(O)c4ccccc4)C3)nc12 (centres unmarked) [Compound 5cf] ... -4.4
NC(=O)c1cccc2[nH]c(C3CCN(CCC(=O)c4ccc(Cl)cc4)C3)nc12 (centres unmarked) [Compound 5cj] ... -9.8
NC(=O)c1cccc2[nH]c(C3CCN(CCCNc4ccccc4)C3)nc12 (centres unmarked) [Compound 5ch] ... -8

**Query** Suppose we examine the compound NC(=O)c1cccc2[nH]c(C3CCN(CCNC(=O)c4ccccc4)C3)nc12 (centres unmarked) [Compound 5co] ; what inhibition at 0.0152 µM value has been reported?
**Result** -2.8

**Query** Report inhibition at 0.0152 µM for O=C(c1cc(Cc2n[nH]c(=O)c3ccccc23)ccc1F)N1CCN(C(=O)C2CC2)CC1 [pc2, Olaparib, reference compound] please.
**Result** -1.2

====

- System: CAPAN-1 (a BRCA-2-mutated pancreatic cancer cell line)
- measurement notes: Cell proliferation assay, three-day, CellTiter-Glo, CAPAN-1
- Assay type: cell-based
- reported conditions: Homo sapiens; CAPAN-1, 0.14 uM, replicate 1; read-out: Inh % 1
- Description: A three-day assay was conducted. A cell suspension was prepared. Cell density was counted by an automated cell counter and then diluted to the required density, according to seeding density. 50 μL cells were seeded into 384-well plate in growth medium according to the plate map. The cells were incubated at 37 °C, 5% CO2 overnight. […] The assay plate was equilibrated to room temperature prior to measurement. […] Luminescence was recorded on the Envision system.
Below, each entry is listed with its recorded inhibition at […].
The figure you give is taken to be in %; do not add the unit.

Field: example entries. Status: answers known.
NC(=O)c1cccc2[nH]c(C3CCN(CCC(=O)Nc4ccccc4)C3)nc12 (stereo not shown) [Compound 5cb] ... -2
COc1ccc(C(=O)CCN2CCC(c3nc4c(C(N)=O)cccc4[nH]3)C2)cc1 (stereo not shown) [Compound 5ci] ... 7.9
NC(=O)c1cccc2[nH]c(C3CCN(CCCN4C(=O)c5ccccc5C4=O)C3)nc12 (stereo not shown) [Compound 5ce] ... -0.6
NC(=O)c1cccc2[nH]c(C3CCN(CCN4C(=O)c5ccccc5C4=O)C3)nc12 (stereo not shown) [Compound 5ck] ... 8.7
NC(=O)c1cccc2[nH]c(C3CCN(CC(=O)Nc4ccccc4)C3)nc12 (stereo not shown) [Compound 5ca] ... 7.4
NC(=O)c1cccc2[nH]c(C3CCN(CC(O)c4ccccc4)C3)nc12 (stereo not shown) [Compound 5cf] ... 10.3

Next, consider the following molecule.
**Query** May I ask what inhibition at […] has been recorded for NC(=O)c1cccc2[nH]c(C3CCN(CCCNc4ccccc4)C3)nc12 (stereo not shown) [Compound 5ch] ?
**Result** -1.8

====

- Tested on: CAPAN-1 (a BRCA-2-mutated pancreatic cancer cell line)
- measurement notes: Cell proliferation assay, three-day, CellTiter-Glo, CAPAN-1
- Assay type: cell-based
- reported conditions: Homo sapiens; CAPAN-1, Conc. 1.23 uM, replicate 1; read-out: Inh % 1
readout: inhibition at 1.23 µM (%)
# output: bare number, implied unit %

Some solved entries appear below for comparison.
NC(=O)c1cccc2[nH]c(C3CCN(CCNC(=O)c4ccccc4)C3)nc12 (stereo not shown) [Compound 5co] ... 9.2
C[C@]1(c2nc3c(C(N)=O)cccc3[nH]2)CCCN1 [pc1, Veliparib, reference compound] ... -10.7
NC(=O)c1cccc2[nH]c(C3CCN(CCC(=O)c4ccccc4)C3)nc12 (stereo not shown) [Compound 5cp] ... 17.2
NC(=O)c1cccc2[nH]c(C3CCN(CCCNC(=O)c4ccccc4)C3)nc12 (stereo not shown) [Compound 5cn] ... 3.1
NCCCN1CCC(c2nc3c(C(N)=O)cccc3[nH]2)C1 (stereo not shown) [Compound 5cl] ... -5.5
NCCN1CCC(c2nc3c(C(N)=O)cccc3[nH]2)C1 (stereo not shown) [Compound 5cm] ... -2.5

In the following, a different molecule is considered.
**Query** Please report the recorded inhibition at 1.23 µM for O=C(c1cc(Cc2n[nH]c(=O)c3ccccc23)ccc1F)N1CCN(C(=O)C2CC2)CC1 [pc2, Olaparib, reference compound] .
**Result** 15.1

====

- Test system: CAPAN-1 (a BRCA-2-mutated pancreatic cancer cell line)
- measurement notes: Cell proliferation assay, three-day, CellTiter-Glo, CAPAN-1
- Type: cell-based
- reported conditions: Homo sapiens; CAPAN-1, 1.23 uM, replicate 1; read-out: Inh % 1
Reported inhibition at 1.23 µM values follow for various molecules
Give just the numeric value; % need not be written.

NC(=O)c1cccc2[nH]c(C3CCN(CC(O)c4ccccc4)C3)nc12 (stereo not shown) ... 5.9
COc1ccc(C(=O)CCN2CCC(c3nc4c(C(N)=O)cccc4[nH]3)C2)cc1 (stereo not shown) ... -11.8
NC(=O)c1cccc2[nH]c(C3CCN(CCCC(=O)c4ccccc4)C3)nc12 (stereo not shown) ... 18

// moving on: another record for inhibition at 1.23 µM
**Query** Query (molecule): NC(=O)c1cccc2[nH]c(C3CCN(CCCNc4ccccc4)C3)nc12 (stereo not shown) ; field requested: inhibition at 1.23 µM
**Result** -2.4

====

- target desc: PARP-2 (Homo sapiens)
- Construct: purchased BPS Bioscience 80552
- measurement notes: PARP-2 inhibition assay (PARP-2 Chemiluminescent Assay Kit, BPS Bioscience)
- Type: biochemical
- reported conditions: 10 nM compound, supplement sheet; read-out: 10 nM inhibition% PAPR-2
- Description: The PARP-1 and PARP-2 inhibition assays were performed in outsourcing, by a CRO company, Shanghai Medicilon Inc. (Shanghai, China). […] Briefly, PARP-1 or PARP-2 biotinylated substrate was incubated with compounds or solvent control at varying concentrations and an assay buffer containing the PARP-1 or PARP-2 enzyme.
readout: inhibition at 0.01 µM (%)

NC(=O)c1cccc2[nH]c(C3CCN(CCCN4C(=O)c5ccccc5C4=O)C3)nc12 (centres unmarked) ... 74.6

[1] NC(=O)c1cccc2[nH]c(C3CCN(CCNC(=O)c4ccccc4)C3)nc12 (centres unmarked)
[2] NCCN1CCC(c2nc3c(C(N)=O)cccc3[nH]2)C1 (centres unmarked)
[3] NC(=O)c1cccc2[nH]c(C3CCN(CC(O)c4ccccc4)C3)nc12 (centres unmarked)
**Query** Your job: order these 3 records by inhibition at 0.01 µM, ascending. Your reply should list the labels following the order given in the request.
**Result** 3, 2, 1

Origin of measurements: paper PMC6572064
